Target: T1, huNectin4-His (human, UniProt Q96NY8 32-349)
T1 construct: Immobilized on the SPR chip; also called humanNectin4; human Nectin4; not shown: His tag
T1 sequence (looked up): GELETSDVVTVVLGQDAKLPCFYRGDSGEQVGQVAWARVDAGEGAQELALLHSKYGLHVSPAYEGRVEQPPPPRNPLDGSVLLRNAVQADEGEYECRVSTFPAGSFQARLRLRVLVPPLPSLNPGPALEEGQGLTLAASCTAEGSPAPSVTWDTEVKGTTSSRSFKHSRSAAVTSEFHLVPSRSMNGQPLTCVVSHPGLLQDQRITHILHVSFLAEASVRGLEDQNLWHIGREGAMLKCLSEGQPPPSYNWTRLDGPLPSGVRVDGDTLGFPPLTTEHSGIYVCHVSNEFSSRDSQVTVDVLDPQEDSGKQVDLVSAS
Assay: SPR, huNectin4-His immobilized, pH 6.5
Reported koff values are given for each entry in this list.
Output spec: scalar in s⁻¹, unitless text.

Some entries whose results are on file:
- binder: "BAP-143-07-03-12 (antibody, V domains shown, Used as a conjugate with a linker payload (CAB ADC)) VH: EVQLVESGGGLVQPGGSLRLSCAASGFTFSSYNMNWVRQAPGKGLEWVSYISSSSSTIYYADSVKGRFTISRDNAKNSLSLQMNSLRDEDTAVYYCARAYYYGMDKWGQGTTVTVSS VL: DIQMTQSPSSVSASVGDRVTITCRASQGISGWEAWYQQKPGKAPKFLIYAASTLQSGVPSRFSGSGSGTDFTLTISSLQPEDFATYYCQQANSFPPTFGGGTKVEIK"
  measuredAttribute: "koff"
  resultNumber: 0.000483
- binder: "BAP-143-00-01 (antibody, V domains shown, Used as a conjugate with a linker payload (CAB ADC)) VH: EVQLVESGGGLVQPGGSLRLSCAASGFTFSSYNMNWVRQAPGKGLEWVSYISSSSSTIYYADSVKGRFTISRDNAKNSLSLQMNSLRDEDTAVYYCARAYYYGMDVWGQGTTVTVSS VL: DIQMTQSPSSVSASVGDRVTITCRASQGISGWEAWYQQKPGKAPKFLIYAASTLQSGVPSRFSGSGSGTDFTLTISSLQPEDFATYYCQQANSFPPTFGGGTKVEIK"
  measuredAttribute: "koff"
  resultNumber: 0.000474

Could you now look at the following binder, please?
(Q) Need koff of BAP-143-06-33-16 (antibody, V domains shown, Used as a conjugate with a linker payload (CAB ADC)) VH: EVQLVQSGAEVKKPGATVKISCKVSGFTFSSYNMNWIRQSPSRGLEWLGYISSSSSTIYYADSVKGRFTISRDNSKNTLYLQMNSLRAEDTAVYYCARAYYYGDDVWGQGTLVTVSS VL: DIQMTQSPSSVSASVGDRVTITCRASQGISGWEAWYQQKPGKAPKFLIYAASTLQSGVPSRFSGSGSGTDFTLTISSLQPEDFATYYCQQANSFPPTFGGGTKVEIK , thanks.
(A) 5.94e-05
